Tested on: Digitaria sanguinalis (DIGSA)
Assay Notes: Post-emergence efficacy, Method A
Format: in vivo
Applied Conditions: Digitaria sanguinalis, post-emergence, 312 h; Application Rate 500 g/Ha; evaluated after 13 days; Method A; read-out: Control of weed species after post-emergence application, DIGSA (100=total damage to plant; 0=no damage to plant)
Parameter: pest or weed control at 500 g/ha. Scope: all listed entries.
Value Kind: pest or weed control at 500 g/ha (%)

Molecule	Value Kind	Observed Value
O=S(=O)([O-])CCCC[n+]1ccc(-c2ncccn2)cn1 [Compound A215]	pest or weed control at 500 g/ha	60
O=S(=O)([O-])CC[n+]1ccc(-c2ncc(CO)cn2)cn1 [Compound A170]	pest or weed control at 500 g/ha	40
Cc1cnc(-c2cc[n+](CCC(=O)O)nc2)c(F)c1 [Compound A178]	pest or weed control at 500 g/ha	10
N#Cc1cnc(-c2cc[n+](CCS(=O)(=O)[O-])nc2)cn1 [Compound A191]	pest or weed control at 500 g/ha	20
COC(=O)C(C)[n+]1ccc(-c2ncccn2)cn1 (stereo not shown) [Compound A192]	pest or weed control at 500 g/ha	30
Nc1nccc(-c2cc[n+](CCS(=O)(=O)[O-])nc2)n1 [Compound A158]	pest or weed control at 500 g/ha	30
CCOP(=O)(CCC[n+]1ccc(-c2ncccn2)cn1)OCC [Compound A204]	pest or weed control at 500 g/ha	0
O=S(=O)([O-])CCC[n+]1ccc(-c2ccc(-c3ccc(Cl)nn3)nn2)cn1 [Compound A168]	pest or weed control at 500 g/ha	10
O=C(O)CC[n+]1ccc(-c2ccnc(C(F)(F)F)c2)cn1 [Compound A166]	pest or weed control at 500 g/ha	70
Nc1nccc(-c2cc[n+](CCC(=O)O)nc2)n1 [Compound A160]	pest or weed control at 500 g/ha	70
N[C@H](CC[n+]1ccc(-c2ccncn2)cn1)C(=O)O [Compound A235]	pest or weed control at 500 g/ha	40
O=P(O)(O)CC[n+]1ccc(-c2ncccn2)cn1 [Compound A198]	pest or weed control at 500 g/ha	80
Nc1cc(-c2cc[n+](CCC(=O)O)nc2)nc(N)n1 [Compound A188]	pest or weed control at 500 g/ha	40
N[C@@H](C[n+]1ccc(-c2ncccn2)cn1)C(=O)O [Compound A208, 2,2,2-trifluoroacetate]	pest or weed control at 500 g/ha	40
CC(C)(C[n+]1ccc(-c2ccncn2)cn1)C(=O)O [Compound A167]	pest or weed control at 500 g/ha	50
NC(=O)c1ccc(-c2cc[n+](CCCS(=O)(=O)[O-])nc2)nc1 [Compound A183]	pest or weed control at 500 g/ha	30
O=S(=O)([O-])OCCC[n+]1ccc(-c2ncccn2)cn1 [Compound A216]	pest or weed control at 500 g/ha	100
O=S(=O)([O-])CC[n+]1ccc(-c2ncc(C(F)(F)F)cc2Cl)cn1 [Compound A175]	pest or weed control at 500 g/ha	40
O=C(O)c1ccc(C[n+]2ccc(-c3ncccn3)cn2)cc1 [Compound A228]	pest or weed control at 500 g/ha	20
